targetEntity: Multidrug resistance-associated protein 1 (Homo sapiens, UniProt P33527)
Sequence (P33527 whole entry): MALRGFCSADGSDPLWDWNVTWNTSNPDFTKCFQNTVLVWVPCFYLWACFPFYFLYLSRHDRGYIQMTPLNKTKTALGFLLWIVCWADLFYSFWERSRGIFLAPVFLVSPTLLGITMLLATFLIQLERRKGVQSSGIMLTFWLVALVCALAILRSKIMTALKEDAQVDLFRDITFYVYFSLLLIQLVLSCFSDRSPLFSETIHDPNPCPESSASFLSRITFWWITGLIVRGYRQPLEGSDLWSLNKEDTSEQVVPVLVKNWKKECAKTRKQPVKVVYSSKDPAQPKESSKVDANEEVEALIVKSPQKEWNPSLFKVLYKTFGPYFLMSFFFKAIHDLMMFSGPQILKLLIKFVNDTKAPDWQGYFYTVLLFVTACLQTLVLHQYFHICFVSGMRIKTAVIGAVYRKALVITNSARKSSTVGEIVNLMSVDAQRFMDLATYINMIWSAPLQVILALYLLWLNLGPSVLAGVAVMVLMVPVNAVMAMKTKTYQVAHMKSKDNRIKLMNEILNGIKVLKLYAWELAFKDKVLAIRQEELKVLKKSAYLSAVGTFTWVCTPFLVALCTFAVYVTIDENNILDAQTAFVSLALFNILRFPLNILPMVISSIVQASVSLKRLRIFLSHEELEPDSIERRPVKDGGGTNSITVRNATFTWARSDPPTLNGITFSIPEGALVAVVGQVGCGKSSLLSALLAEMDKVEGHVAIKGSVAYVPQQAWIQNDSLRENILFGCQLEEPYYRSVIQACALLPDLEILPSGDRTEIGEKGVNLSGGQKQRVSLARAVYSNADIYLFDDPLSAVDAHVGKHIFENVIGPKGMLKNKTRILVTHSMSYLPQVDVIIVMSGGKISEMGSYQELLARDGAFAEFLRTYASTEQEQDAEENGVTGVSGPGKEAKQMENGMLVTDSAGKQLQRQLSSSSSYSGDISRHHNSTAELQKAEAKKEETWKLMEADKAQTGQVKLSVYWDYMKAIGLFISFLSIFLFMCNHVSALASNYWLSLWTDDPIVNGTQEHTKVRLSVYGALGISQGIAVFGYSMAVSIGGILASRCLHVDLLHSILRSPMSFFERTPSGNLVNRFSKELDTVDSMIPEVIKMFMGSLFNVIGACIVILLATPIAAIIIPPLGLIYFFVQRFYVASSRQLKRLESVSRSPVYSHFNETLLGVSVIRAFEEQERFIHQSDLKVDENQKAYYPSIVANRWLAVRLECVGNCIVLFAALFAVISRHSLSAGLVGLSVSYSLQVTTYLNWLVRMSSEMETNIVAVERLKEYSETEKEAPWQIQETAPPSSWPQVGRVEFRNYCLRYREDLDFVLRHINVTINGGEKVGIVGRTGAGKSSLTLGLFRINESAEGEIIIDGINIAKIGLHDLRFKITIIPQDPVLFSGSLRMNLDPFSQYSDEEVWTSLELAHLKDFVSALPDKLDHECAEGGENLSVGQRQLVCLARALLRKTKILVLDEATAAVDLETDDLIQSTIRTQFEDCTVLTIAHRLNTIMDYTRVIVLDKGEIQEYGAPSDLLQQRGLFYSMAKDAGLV
runDescription: Inhibitory activity against MRP1-mediated LTC4 uptake into membrane vesicles from HeLa-T5 cells expressing MRP1
measure: pIC50
pIC50 is defined as minus the log10 of a concentration measured in mol/L.

What does the record list as pIC50 for Cc1onc2c1c(=O)n([C@H]1CCC[C@@H](CNC(=O)c3ccccc3)C1)c1cccc(Cl)c21 (racemic) ?
7.42

What does the record list as pIC50 for COc1cc(C(=O)NC[C@@H]2CCC[C@H](n3c(=O)c4c(C)onc4c4c(Cl)cccc43)C2)cc(OC)c1OC (racemic) ?
6.57

What does the record list as pIC50 for Cc1onc2c1c(=O)n([C@H]1CCC[C@H](CNC(=O)c3ccccc3)C1)c1cccc(Cl)c21 (racemic) ?
5.99

Where these numbers come from: ChEMBL document CHEMBL1141238
